Test system: P388 leukemia ip, CD2F1 mice, survival T/C
testDetails: NCI In Vivo Anticancer Drug Screen. Data for tumor model P388 Leukemia (intraperitoneal) in CD2F1 (CDF1) mice
settings: endpoint: median survival time; dose: 60.0 mg/kg/injection; schedule: Q01DX005 (ip); vehicle: saline with Tween-80
Procedure: The antitumor activity of compounds was measured in mice bearing transplantable tumors. Survival or tumor size were measured and the results are expressed as the measurement made in the treated group (T) divided by the measurement made in the vehicle treated control group (C). The tumor model used in this assay is P388 Leukemia (intraperitoneal) in CD2F1 (CDF1) mice
Toxic doses and inconclusive results are not listed. Rule for the calls: active = survival T/C of 150% or more; inactive = T/C below 125% in these data.
Classes used: active, inactive

1) N#CC(NCc1ccccc1)c1ccccc1 (stereo unspecified) :: inactive
2) COc1ccc(OC)c(NCCCN2C(=O)c3ccccc3C2=O)c1 :: inactive
3) COc1cccc(C(Nc2nncs2)Nc2nncs2)c1 :: inactive
4) CC(C)(C)C1CC[N+](=C(O[B-](F)(F)F)c2ccccc2)CC1 (stereo unspecified) :: inactive
5) CS(=O)(=O)OCCC[Se]Cc1ccccc1C[Se]CCCOS(C)(=O)=O :: inactive
6) COc1cc(OC)c(C2CC(C)(N3CCCC3)Oc3cc4c(cc32)OCO4)c(OC)c1 (stereo unspecified) :: inactive
7) COc1ccccc1C1=Nc2ccccc2N=C(c2ccccc2O)C1 :: inactive
8) Cc1ccc2nc(CC(=O)c3ccccc3)c(CC(=O)c3ccccc3)nc2c1 :: inactive
9) COC(=O)c1nc2nnc(NC(=O)Nc3ccc(Cl)cc3)n2c(-c2ccc(Cl)cc2)c1C :: inactive
10) NC(N)=NS(=O)(=O)c1ccc(NCc2c3ccccc3nc3cc(Cl)ccc23)cc1 :: active
11) COc1ccc(/C=N/NC(=O)c2ccc(Cl)cc2Cl)cc1OC :: inactive
12) O=C1CCC(Cc2ccc(Cl)cc2Cl)C(=O)N1 (stereo unspecified) :: inactive
13) O/N=C/C(=Nc1ccccc1N=C(/C=N/O)NO)NO :: inactive
14) CCCSC(=O)Nc1ccc(Cc2ccc(NC(=O)SCCC)cc2)cc1 :: inactive
15) CCCCCCCOC(=O)c1cc2cc(C(CC)C(CC)c3ccc(O)cc3)ccc2oc1=O (stereo unspecified) :: inactive
16) COC(=O)c1[nH]c(=O)c(C#N)c(C(=O)OC)c1C(=O)/C=C/c1ccccc1 :: inactive
17) CCNC(=O)c1c(C)nc(-c2ccccc2)nc1Nc1ccc(OCC)cc1 :: inactive
18) CSc1nnc(CCC(=O)Nc2cc(Cl)ccc2Cl)o1 :: inactive
19) C=C(C(N)=O)C(N)C(=O)O (stereo unspecified) :: inactive
20) COc1cc(/C=N/NC(=O)c2cc(OC)c(OC)c(OC)c2)ccc1O :: inactive
21) O=C(CCCl)Nc1ccc(C(=O)CCc2cccc(NC(=O)CCCl)c2)cc1 :: inactive
